What log10 Kd was measured for each of the following?
Biological target: T1, XtrLin28b CSD (Xenopus tropicalis, UniProt B4F6I0 27-114)
T1 sequence: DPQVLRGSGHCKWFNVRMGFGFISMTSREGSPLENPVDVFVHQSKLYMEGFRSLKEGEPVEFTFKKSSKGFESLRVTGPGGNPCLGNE
Assay: Trp fluorescence titration
Please interpret these as log10 of Kd where Kd is in nM.

                               binder  observed
0               TTTTCTT (ssDNA) [dC5]      2.19
1               TTTATTT (ssDNA) [dA4]      2.09
2  TTTTTTA (ssDNA) [dA7 (position 7)]      2.05

Would you be so kind as to report log10 Kd for each listed record?
1. TGTTTTT (ssDNA) [dG2]
2. TTGTTTT (ssDNA) [dG3]
3. TTTTT (ssDNA) [dT5]

Marked response:
[1.59, 2.14, 2.83]

Your task in this section: give log10 Kd for each listed record.
1. TTCTTTT (ssDNA) [dC3]
2. TTTTTTTT (ssDNA) [dT8]
3. TTTCTTT (ssDNA) [dC4]
4. TTTTTT (ssDNA) [dT6]
5. TTTTGTT (ssDNA) [dG5]
6. TATTTTT (ssDNA) [dA2]
7. TTATTTT (ssDNA) [dA3]

Marked response:
1. 1.85
2. 1.51
3. 1.86
4. 2.23
5. 1.65
6. 2.49
7. 2.14

Give me log10 Kd for each of these binders, listed below.
1. TTTTTTC (ssDNA) [dC7]
2. CTTTTTT (ssDNA) [dC1]
3. GTTTTTT (ssDNA) [dG1]
4. TTTTTTT (ssDNA) [dT7]
5. TTTTATT (ssDNA) [dA5]

Marked response:
1.77
1.65
1.08
1.77
2.25
